Tested on: Fibroblast
Test: Multiplex assay against human fibroblast
Type: toxicity, cell-based
Details: 48 h, 1 µM, compound concentration 1 uM, replicate 1
observation_type: Total Cell Count

These recorded examples may help you get a feel for the data.
1) CCn1c(=O)c(-c2ccc(-c3cncs3)cc2Cl)cc2cnc(Nc3ccc(N4CCN(C)CC4)cc3)nc21 :: 105
2) CCOC(=O)c1c(C)[nH]c2ccc3c(c12)CN1CCc2cc(OC)ccc2C1O3 (configuration not stated) :: 155
3) CCCS(=O)(=O)c1nc(NC2CC2)cc(-c2ccc3c(ccn3C3CC(C)(C)NC(C)(C)C3)c2)n1 :: 105

Name the recorded Total Cell Count for CN1CCC(=C2c3ccccc3CC(=O)c3sccc32)CC1.O=C(O)/C=C/C(=O)O [KETOTIFEN FUMARATE] .
170

Name the recorded Total Cell Count for CCc1cccc(CC)c1NC(=O)c1nn(C)c2c1CCc1cnc(Nc3ccc(C(=O)NC4CCN(C)CC4)cc3OC(F)(F)F)nc1-2 .
141

Name the recorded Total Cell Count for CCN1CCN(Cc2ccc(Nc3ncc(F)c(-c4cc(F)c5nc(C)n(C(C)C)c5c4)n3)nc2)CC1.CS(=O)(=O)O .
246

Name the recorded Total Cell Count for Cc1cn(-c2cc(NC(=O)c3ccc(C)c(Nc4nccc(-c5cccnc5)n4)c3)cc(C(F)(F)F)c2)cn1 .
138

====

System: U2OS
Experiment: Multiplex assay against U2OS
Assay type: toxicity, cell-based
Details: human, 24 h, 10 µM, compound concentration 10 uM, replicate 1
# label 1 = Population Mitotic Cells (%) below 40% (exclusive); label 0 = Population Mitotic Cells (%) at/above 40%

The following molecules have reported results that may help.
1) Cc1ccc(C(=O)Nc2cccc(C(F)(F)F)c2)cc1Nc1nc(-c2cccnc2)nc2c1cnn2C :: label 1
2) C=C1/C(=C\C=C2/CCC[C@]3(C)[C@@H]([C@H](C)/C=C/[C@H](C)C(C)C)CC[C@@H]23)C[C@@H](O)C[C@@H]1O :: label 0
3) CCc1cccc(CC)c1NC(=O)c1nn(C)c2c1CCc1cnc(Nc3ccc(N4CCN(C)CC4)cc3OC)nc1-2 :: label 0
4) Cl.Oc1ccc2c3c1O[C@H]1c4[nH]c5c(c4C[C@@]4(O)[C@@H](C2)N(CC2CC2)CC[C@]314)C[C@@]1(O)[C@H]2Cc3ccc(O)c4c3[C@@]1(CCN2CC1CC1)[C@H]5O4 :: label 0
5) CNC(=O)c1ccc(Nc2nc(OC3CCCC3)c3c(-c4ccc5nc(C)oc5c4)c[nH]c3n2)c(OC)c1 :: label 0
6) O=C(Cc1ccc(-c2ccc(OCCN3CCOCC3)cc2)cn1)NCc1ccccc1 :: label 0
7) COc1cc2ncnc(Nc3ccc(F)c(Cl)c3)c2cc1NC(=O)/C=C/CN1CCCCC1 [DACOMITINIB ANHYDROUS] :: label 0
8) CNc1cc(Oc2cc(C(=O)Nc3cc(N4CCN(C)CC4)cc(C(F)(F)F)c3)ccc2C)ncn1 :: label 1

I'd appreciate it if you could check whether CN1CCN(C(=O)C(C)(C)c2ccc(C(=O)Nc3cn4cc(-c5cc(C(C)(C)C)cc(C(C)(C)C)c5)ccc4n3)cc2)CC1 has Population Mitotic Cells (%) smaller than 40%.
label 0

I'd appreciate it if you could check whether O=C(Nc1ccc(-n2nc(-c3cccnc3)cc2C(F)(F)F)cn1)c1ccc(-c2ccccc2)c(F)c1 has Population Mitotic Cells (%) smaller than 40%.
label 0

I'd appreciate it if you could check whether CCCS(=O)(=O)c1nc(NC2CC2)cc(-c2ccc3c(ccn3C3CC(C)(C)NC(C)(C)C3)c2)n1 has Population Mitotic Cells (%) smaller than 40%.
label 1
